# EXPERIMENTAL SYSTEM: BBN receptor (Rattus norvegicus)
# Sequence (P52500 whole entry): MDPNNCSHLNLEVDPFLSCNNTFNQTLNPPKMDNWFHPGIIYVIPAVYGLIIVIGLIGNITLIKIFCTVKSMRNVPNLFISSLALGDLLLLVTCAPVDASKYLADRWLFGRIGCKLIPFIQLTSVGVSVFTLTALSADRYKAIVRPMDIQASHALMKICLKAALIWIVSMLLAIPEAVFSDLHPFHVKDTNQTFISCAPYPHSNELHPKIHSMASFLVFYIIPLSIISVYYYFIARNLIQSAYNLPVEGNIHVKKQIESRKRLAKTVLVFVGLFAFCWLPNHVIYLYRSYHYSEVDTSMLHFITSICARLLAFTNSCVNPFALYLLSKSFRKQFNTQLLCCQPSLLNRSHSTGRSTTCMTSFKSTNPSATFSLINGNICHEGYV
pKd: −log10 of the molar value. Positions of bridges follow the written chain, without caps; N, C: chain ends. Non-standard residues stand in square brackets, D forms with d. Residues, ends and D or L forms follow the SMILES beside them. *: point of attachment. Chlorambucil = O=C(CCCc1ccc(N(CCCl)CCCl)cc1)*; NH(4-Br-phenethyl) = Brc1ccc(CCN*)cc1

COMPOUND	QUALIFYING SIGN	pKd
CC(=O)N[C@@H](Cc1c[nH]cn1)C(=O)N[C@@H](Cc1c[nH]c2ccccc12)C(=O)N[C@@H](C)C(=O)N[C@H](C(=O)N[C@H](C)C(=O)N[C@@H](Cc1c[nH]cn1)C(=O)NCCc1ccc(Br)cc1)C(C)C [PTC 820] (Ac-HWAV[dA]H-{NH(4-Br-phenethyl)})	<	5.52
CC(=O)N[C@H]1CCCCNC(=O)[C@H](CC(C)C)NC(=O)[C@H](Cc2c[nH]cn2)NC(=O)[C@H](C)NC(=O)[C@H](C(C)C)NC(=O)[C@H](C)NC(=O)[C@H](Cc2c[nH]c3ccccc23)NC(=O)[C@H](CCC(N)=O)NC(=O)[C@H](CC(N)=O)NC1=O [PTC 803] (Ac-KNQWAVAHL; lactam 1-C)	<	5.52
CCOC(=O)[C@H](CC(C)C)NC(=O)[C@H](Cc1c[nH]cn1)NC(=O)[C@@H](C)NC(=O)[C@@H](NC(=O)[C@H](C)NC(=O)[C@H](Cc1c[nH]c2ccccc12)NC(=O)[C@H](Cc1c[nH]cn1)NC(=O)CCCc1ccc(N(CCCl)CCCl)cc1)C(C)C [PTC 821] (Chlorambucil-HWAV[dA]HL-OEt)	=	8.49
CC(=O)N[C@@H]1CCCCNC(=O)[C@H](CC(C)C)NC(=O)[C@H](Cc2c[nH]cn2)NC(=O)[C@H](C)NC(=O)[C@H](C(C)C)NC(=O)[C@H](C)NC(=O)[C@H](Cc2c[nH]c3ccccc23)NC(=O)[C@H](CCC(N)=O)NC(=O)[C@H](CC(N)=O)NC1=O [PTC 805] (Ac-[dK]NQWAVAHL; lactam 1-C)	<	5.52
CCOC(=O)[C@H](CC(C)C)NC(=O)[C@H](Cc1c[nH]cn1)NC(=O)[C@@H](C)NC(=O)[C@@H](NC(=O)[C@H](C)NC(=O)[C@H](Cc1c[nH]c2ccccc12)NC(=O)[C@H](CCC(N)=O)NC(=O)[C@H](CC(N)=O)NC(=O)CCCc1ccc(N(CCCl)CCCl)cc1)C(C)C [PTC 815] (Chlorambucil-NQWAV[dA]HL-OEt)	=	7.97

###

# IC50 per record follows
# EXPERIMENTAL SYSTEM: BBN receptor (Homo sapiens, UniProt P30550)
# Construct: endogenous in cells; host or cells: NCI-H345 (human SCLC)
# Sequence (P30550 whole entry): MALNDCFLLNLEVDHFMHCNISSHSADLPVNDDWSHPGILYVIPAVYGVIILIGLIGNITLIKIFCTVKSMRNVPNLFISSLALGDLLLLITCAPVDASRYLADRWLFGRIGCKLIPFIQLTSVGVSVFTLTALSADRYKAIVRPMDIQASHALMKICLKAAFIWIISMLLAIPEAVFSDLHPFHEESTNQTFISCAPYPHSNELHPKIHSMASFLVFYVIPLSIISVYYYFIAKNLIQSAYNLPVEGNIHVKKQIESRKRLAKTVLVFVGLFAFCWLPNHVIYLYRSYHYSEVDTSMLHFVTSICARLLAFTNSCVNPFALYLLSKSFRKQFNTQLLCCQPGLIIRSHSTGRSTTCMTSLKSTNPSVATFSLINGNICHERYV
# PROTOCOL: Inhibition of [125I]Tyr4-BBN binding to SCLC NCI-H345 membranes
Non-standard residues stand in square brackets, D forms with d. Residues, ends and D or L forms follow the SMILES beside them. *: point of attachment. Chlorambucil = O=C(CCCc1ccc(N(CCCl)CCCl)cc1)*; NH(4-Br-phenethyl) = Brc1ccc(CCN*)cc1; X1 = O=C(CCCc1ccc(N(CCO)CCCl)cc1)*; BrAc = O=C(CBr)*

COMPOUND	EXPERIMENTAL SYSTEM	READOUT UNITS	QUALIFYING SIGN	IC50
CCOC(=O)[C@H](CC(C)C)NC(=O)[C@H](Cc1c[nH]cn1)NC(=O)[C@@H](C)NC(=O)[C@@H](NC(=O)[C@H](C)NC(=O)[C@H](Cc1c[nH]c2ccccc12)NC(=O)[C@H](CCC(N)=O)NC(=O)[C@H](CC(N)=O)NC(=O)CCCc1ccc(N(CCO)CCCl)cc1)C(C)C [PTC 815B] (X1-NQWAV[dA]HL-OEt)	BBN receptor (Homo sapiens, UniProt P30550)	nM	=	45
CCOC(=O)[C@H](CC(C)C)NC(=O)[C@H](Cc1c[nH]cn1)NC(=O)[C@@H](C)NC(=O)[C@@H](NC(=O)[C@H](C)NC(=O)[C@H](Cc1c[nH]c2ccccc12)NC(=O)[C@H](CCC(N)=O)NC(=O)[C@H](CC(N)=O)NC(=O)CBr)C(C)C [PTC 816] (BrAc-NQWAV[dA]HL-OEt)	BBN receptor (Homo sapiens, UniProt P30550)	nM	=	55
CCOC(=O)[C@H](CC(C)C)NC(=O)[C@H](Cc1c[nH]cn1)NC(=O)[C@@H](C)NC(=O)[C@@H](NC(=O)[C@H](C)NC(=O)[C@H](Cc1c[nH]c2ccccc12)NC(=O)[C@H](CCC(N)=O)NC(=O)[C@H](CC(N)=O)NC(=O)CCCc1ccc(N(CCCl)CCCl)cc1)C(C)C [PTC 815] (Chlorambucil-NQWAV[dA]HL-OEt)	BBN receptor (Homo sapiens, UniProt P30550)	nM	=	35
CC(=O)N[C@@H](Cc1c[nH]cn1)C(=O)N[C@@H](Cc1c[nH]c2ccccc12)C(=O)N[C@@H](C)C(=O)N[C@H](C(=O)N[C@H](C)C(=O)N[C@@H](Cc1c[nH]cn1)C(=O)NCCc1ccc(Br)cc1)C(C)C [PTC 820] (Ac-HWAV[dA]H-{NH(4-Br-phenethyl)})	BBN receptor (Homo sapiens, UniProt P30550)	nM	>	10000
CCOC(=O)[C@H](CC(C)C)NC(=O)[C@H](Cc1c[nH]cn1)NC(=O)[C@@H](C)NC(=O)[C@@H](NC(=O)[C@H](C)NC(=O)[C@H](Cc1c[nH]c2ccccc12)NC(=O)[C@H](Cc1c[nH]cn1)NC(=O)CCCc1ccc(N(CCCl)CCCl)cc1)C(C)C [PTC 821] (Chlorambucil-HWAV[dA]HL-OEt)	BBN receptor (Homo sapiens, UniProt P30550)	nM	=	8
